- Test system: EC-PC co-culture BBB model
- MEASUREMENT_NOTES: Penetration of small molecule drugs across the BBB co-culture model
- RECORDED_CONDITIONS: 1 μM drug; cAMP+Ro+LiCl+A83-01 vs control
MEASURE: permeability (Papp), blood-to-brain (A-B), change on combination treatment

INSERT INTO results (compound, measurement) VALUES
  ('CN(C)C(=O)C(CCN1CCC(O)(c2ccc(Cl)cc2)CC1)(c1ccccc1)c1ccccc1 [Loperamide]', 'lower permeability'),
  ('CC[C@]1(O)C[C@@H]2CN(CCc3c([nH]c4ccccc34)[C@@](C(=O)OC)(c3cc4c(cc3OC)N(C)[C@H]3[C@@](O)(C(=O)OC)[C@H](OC(C)=O)[C@]5(CC)C=CCN6CC[C@]43[C@@H]65)C2)C1', 'lower permeability'),
  ('O=C(O)c1ccccc1O', 'lower permeability');
